# test.target: Polyadenylate-binding protein 1 (Homo sapiens)
# assay.protocol: PABP poly(A) RNA binding inhibitors, primary screen, biochemical, fluorescence polarization, uHTS (AID 2014);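 also: calls also rest on retests at 20 µM and on dose response follow-up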
# stated.conditions: at 35 µM, active compounds read high
Hit rate of the full screen: of about 290,000 compounds, about 3,000 (1%) were called active. The sample holds actives, similar compounds and a random draw of the others, so the mix is not that of the screen.
metric: inhibition (%)
Answer with a number only, understood to be in %.

// inhibition lookup, key: O=C1CCC(C(=O)N2CCCCO2)CN1Cc1cccc(C(F)(F)F)c1 (configuration not stated)
4.6

What inhibition value was documented for this molecule, `COc1cccc(CNc2ncc(-c3ccccc3)n2C)c1` ?
-1.9

What measured inhibition goes with `Cc1ccc(OCC(=O)c2cc(C)n(Cc3ccco3)c2C)c([N+](=O)[O-])n1` ?
40.8

Given the molecule `Nc1nc(-c2ccccc2)cc(-c2ccccc2)n1` , what is its reported inhibition?
9.3

Entry `COc1ccc(-c2nn(-c3ccccc3)cc2/C=C2/SC(=S)N(CCCC(=O)O)C2=O)c(C)c1` has what inhibition?
4.8

Reported inhibition, molecule `CCC1(CC)Cc2ccccc2-c2nc(CCl)[nH]c(=O)c21` : ____
-1.7

Could you share which inhibition value was measured for `COC(=O)c1cc(NS(=O)(=O)c2ccc3c(c2)c(=O)n(C)c(=O)n3C)cc(C(=O)OC)c1` ?
3.8

Quick check: inhibition of `COc1ccc2c(C)c(CCC(=O)NC3CC3)c(=O)oc2c1C` ?
11.8

I have this molecule here, `CS(=O)(=O)c1sc2nc(-c3ccccc3)cc(-c3ccccc3)c2c1N` , and I need its recorded inhibition.
117

Query: inhibition; subject: `Cc1ccc(-c2nn(-c3ccccc3)cc2/C=C2\SC(=S)N(CCCCCC(=O)O)C2=O)o1`
35.4

So what does the record say about inhibition for COc1ccc(C(=O)NC(C)c2nccs2)cc1OC1CCN(C(C)C)CC1 (configuration not stated) ?
1.2

Which inhibition value belongs to `COc1ccccc1OCCCC(=O)Nc1ccc2c(c1)OCCO2` ?
3.8

inhibition lookup needed for COC(=O)CCCC1=CC2=CC(=O)C(C)(OC(=O)c3cccs3)C(=O)C2=CN1CC(C)C (configuration not stated) , thanks.
36.8

What does the data say about its inhibition? Entry: `Cc1cc(C)cc(OCC(=O)NNC(=O)CCN2C(=O)c3ccccc3C2=O)c1`
116

Bench note: what inhibition did `CNc1nc(-c2ccccc2)cc(-c2ccccc2)n1` show?
4.7

Need inhibition of CCCCC1=CC2=CC(=O)C(C)(OC(=O)CC)C(=O)C2=CN1CCCOC(C)C (configuration not stated) , thanks.
34.8

Recorded inhibition for O=C1CC(c2ccccc2)C(=O)N1c1cccc(O)c1 (configuration not stated) , please?
-5.5

Endpoint output: inhibition of Cc1c(-c2cccc(Cl)c2)nc2ccccc2c1C(=O)OCC(=O)N(C)C1CCS(=O)(=O)C1 (configuration not stated) . Value?
6.7

Bench note: what inhibition did CN(C(=O)COC(=O)c1nc(Cl)ccc1Cl)C1CCS(=O)(=O)C1 (configuration not stated) show?
1.3

I have this molecule here, `CC(=O)c1cnc(SCC(=O)O)nc1C` , and I need its recorded inhibition.
54.3

Suppose we examine the molecule `Cc1cc(Cl)c2oc(C(=O)N3CCC(O)(c4ccccc4)CC3)c(C)c2c1` ; what inhibition value has been reported?
3.6

Please give the measured inhibition for this molecule: COCc1cc(C)n(CC(=O)NCC2CCCO2)c(=O)c1C#N (configuration not stated)
-1.9
